- test.details: Iodine color number according to DIN 6162:2014-09
- Assay type: physicochemical
- test.context: Polymer P1 with stabilizer; start

# molecule, Iodine color number, start
rows = [
    ("Cn1sc(Cl)cc1=O [CMIT, 5-chloro-N-methylisothiazolin-3-one]", 2.5),
    ("CCCCCCCCn1sccc1=O [OIT, octylisothiazolinone]", 2.8),
    ("CCCCCCCCCCCCCCCC[N+](C)(C)Cc1ccccc1.[Cl-] [Polymer 16-BAC, cetylalkonium chloride]", 2.6),
    ("CCCCNC(=O)OCC#CI [Iodopropynyl butyl carbamate, iodopropynyl butyl carbamate]", 2.8),
]

----------
- test.details: Analysis of active substance: preservative concentration before and after storage in VI-containing polymer solution
- Format: physicochemical
- test.context: in Polymer P2; storage 28 d at 40° C.
// reported active-substance concentration, 28 d, 40° C. for each item listed
endpoint.name: active-substance concentration, 28 d, 40° C.

# compound, result
measured = [
    ("CCCCCCCCn1sc(Cl)c(Cl)c1=O [DCOIT, dichloroctylisothiazolinone]", "195 ppm"),
    ("O=c1[nH]sc2ccccc12 [BIT, 1,2-benzisothiazolin-3-one]", "93 ppm"),
    ("CCCCCCCCn1sccc1=O [OIT, octylisothiazolinone]", "101 ppm"),
    ("CCCCNC(=O)OCC#CI [Iodopropynyl butyl carbamate, iodopropynyl butyl carbamate]", "183 ppm"),
    ("CCCCCCCCCC[N+](C)(C)CCCCCCCCCC.[Cl-] [DDAC, didecyldimethylammonium chloride]", "940 ppm"),
    ("Cn1sccc1=O [MIT, methyl-4-isothiazolin-3-one]", "139 ppm"),
    ("CCCCCCCCCCCCCCCC[N+](C)(C)Cc1ccccc1.[Cl-] [Polymer 16-BAC, cetylalkonium chloride]", "960 ppm"),
    ("Cn1sc(Cl)cc1=O [CMIT, 5-chloro-N-methylisothiazolin-3-one]", "89 ppm"),
]

----------
- Test system: Bacteria: Escherichia coli, Staphylococcus aureus, Pseudomonas aeruginosa, Pseudomonas putida, Burkholderia cepacia, Alcaligenes faecalis
- test.details: Preservation test with periodic inoculation, bacteria assessment
- Type: cell-based
- test.context: Polymer P6; sample stored 60 d at 40° C.
endpoint.name: 60 d 40° C., bact. assess., 4th inoculation

# compound, result
records = [
    ("O=c1[nH]sc2ccccc12", "+"),
    ("Cn1sc(Cl)cc1=O", "+"),
    ("CCCCCCCCn1sccc1=O", "++"),
    ("Cn1sccc1=O", "+"),
    ("CCCCCCCCn1sc(Cl)c(Cl)c1=O", "+"),
    ("CCCCNC(=O)OCC#CI [Iodopropynyl butyl carbamate, iodopropynyl butyl carbamate]", "+"),
]

----------
- test.details: Iodine color number according to DIN 6162:2014-09
- Format: physicochemical
- test.context: Polymer P3 with stabilizer; start
The reader will find reported Iodine color number, start values listed item by item below.

# molecule, Iodine color number, start
measured = [
    ("CCCCCCCCCCCCCCCC[N+](C)(C)Cc1ccccc1.[Cl-] [Polymer 16-BAC, cetylalkonium chloride]", 3.1),
    ("CCCCNC(=O)OCC#CI [Iodopropynyl butyl carbamate, iodopropynyl butyl carbamate]", 3.4),
    ("Cn1sccc1=O", 3.4),
]

----------
- test.details: Analysis of active substance: preservative concentration before and after storage in VI-containing polymer solution
- Assay type: physicochemical
- test.context: in Polymer P6; storage 14 d at 40° C.
endpoint.name: active-substance concentration, 14 d, 40° C. (ppm)

# compound, result.units, number
data = [
    ("CCCCCCCCn1sc(Cl)c(Cl)c1=O", "ppm", 222),
    ("CCCCCCCCn1sccc1=O", "ppm", 135),
    ("O=c1[nH]sc2ccccc12", "ppm", 99),
    ("CCCCCCCCCCCCCCCC[N+](C)(C)Cc1ccccc1.[Cl-] [Polymer 16-BAC, cetylalkonium chloride]", "ppm", 970),
    ("Cn1sccc1=O", "ppm", 143),
    ("CCCCNC(=O)OCC#CI [Iodopropynyl butyl carbamate, iodopropynyl butyl carbamate]", "ppm", 201),
    ("Cn1sc(Cl)cc1=O", "ppm", 91),
    ("CCCCCCCCCC[N+](C)(C)CCCCCCCCCC.[Cl-] [DDAC, didecyldimethylammonium chloride]", "ppm", 950),
]

----------
- test.details: Analysis of active substance: preservative concentration before and after storage in VI-containing polymer solution
- Format: physicochemical
- test.context: in Polymer P9; storage 60 d at 40° C.
Entries and their measured active-substance concentration, 60 d 40° C. follow.
endpoint.name: active-substance concentration, 60 d 40° C. (ppm)

# compound, number
data = [
    ("CCCCCCCCn1sc(Cl)c(Cl)c1=O [DCOIT, dichloroctylisothiazolinone]", 87),
    ("O=c1[nH]sc2ccccc12 [BIT, 1,2-benzisothiazolin-3-one]", 60),
    ("CCCCCCCCn1sccc1=O [OIT, octylisothiazolinone]", 62),
    ("CCCCCCCCCCCCCCCC[N+](C)(C)Cc1ccccc1.[Cl-] [Polymer 16-BAC, cetylalkonium chloride]", 940),
]

----------
Entries and their measured Iodine color number, start follow.
- test.details: Iodine color number according to DIN 6162:2014-09
- Type: physicochemical
- test.context: Polymer P6 with stabilizer; start

# molecule, Iodine color number, start
data = [
    ("CCCCNC(=O)OCC#CI [Iodopropynyl butyl carbamate, iodopropynyl butyl carbamate]", 3.4),
    ("Cn1sc(Cl)cc1=O", 3.5),
    ("O=c1[nH]sc2ccccc12", 3.6),
    ("CCCCCCCCCCCCCCCC[N+](C)(C)Cc1ccccc1.[Cl-] [Polymer 16-BAC, cetylalkonium chloride]", 3.4),
    ("CCCCCCCCn1sccc1=O", 3.4),
    ("CCCCCCCCCC[N+](C)(C)CCCCCCCCCC.[Cl-] [DDAC, didecyldimethylammonium chloride]", 3.3),
    ("CCCCCCCCn1sc(Cl)c(Cl)c1=O", 3.6),
    ("Cn1sccc1=O", 3.6),
]

----------
- test.details: Iodine color number according to DIN 6162:2014-09
- Format: physicochemical
- test.context: Polymer P3 with stabilizer; 60 d 40° C.
The reader will find reported Iodine color number, 60 d 40° C. values listed item by item below.

# compound, Iodine color number, 60 d 40° C.
data = [
    ("CCCCCCCCCCCCCCCC[N+](C)(C)Cc1ccccc1.[Cl-] [Polymer 16-BAC, cetylalkonium chloride]", 3.3),
    ("O=c1[nH]sc2ccccc12", 9.3),
    ("Cn1sccc1=O", 8.5),
    ("Cn1sc(Cl)cc1=O", 8.5),
    ("CCCCCCCCCC[N+](C)(C)CCCCCCCCCC.[Cl-] [DDAC, didecyldimethylammonium chloride]", 3.3),
]

----------
Iodine color number, start values for the molecules below.
- test.details: Iodine color number according to DIN 6162:2014-09
- Type: physicochemical
- test.context: Polymer P8 with stabilizer; start

# molecule, Iodine color number, start
data = [
    ("CCCCCCCCn1sccc1=O", 3.3),
    ("CCCCCCCCCC[N+](C)(C)CCCCCCCCCC.[Cl-] [DDAC, didecyldimethylammonium chloride]", 3.3),
    ("Cn1sc(Cl)cc1=O", 3.3),
    ("CCCCNC(=O)OCC#CI [Iodopropynyl butyl carbamate, iodopropynyl butyl carbamate]", 3.4),
    ("O=c1[nH]sc2ccccc12", 3.4),
]

----------
- test.details: Analysis of active substance: preservative concentration before and after storage in VI-containing polymer solution
- Type: physicochemical
- test.context: in Polymer P2; storage 14 d at 40° C.
endpoint.name: active-substance concentration, 14 d, 40° C.

# compound, result
records = [
    ("CCCCCCCCn1sccc1=O", "170 ppm"),
    ("O=c1[nH]sc2ccccc12", "112 ppm"),
    ("Cn1sc(Cl)cc1=O", "108 ppm"),
    ("CCCCNC(=O)OCC#CI [Iodopropynyl butyl carbamate, iodopropynyl butyl carbamate]", "225 ppm"),
    ("CCCCCCCCCC[N+](C)(C)CCCCCCCCCC.[Cl-] [DDAC, didecyldimethylammonium chloride]", "950 ppm"),
    ("CCCCCCCCCCCCCCCC[N+](C)(C)Cc1ccccc1.[Cl-] [Polymer 16-BAC, cetylalkonium chloride]", "960 ppm"),
    ("Cn1sccc1=O", "181 ppm"),
    ("CCCCCCCCn1sc(Cl)c(Cl)c1=O", "244 ppm"),
]

----------
- test.details: Analysis of active substance: preservative concentration before and after storage in VI-containing polymer solution
- Assay type: physicochemical
- test.context: in Polymer P7; storage 14 d at 40° C.
active-substance concentration, 14 d, 40° C. by entry:
endpoint.name: active-substance concentration, 14 d, 40° C. (ppm)

# molecule, number
records = [
    ("CCCCCCCCn1sccc1=O", 139),
    ("CCCCNC(=O)OCC#CI [Iodopropynyl butyl carbamate, iodopropynyl butyl carbamate]", 207),
    ("Cn1sc(Cl)cc1=O", 96),
    ("O=c1[nH]sc2ccccc12", 105),
    ("CCCCCCCCCCCCCCCC[N+](C)(C)Cc1ccccc1.[Cl-] [Polymer 16-BAC, cetylalkonium chloride]", 975),
    ("CCCCCCCCn1sc(Cl)c(Cl)c1=O", 228),
    ("Cn1sccc1=O", 149),
    ("CCCCCCCCCC[N+](C)(C)CCCCCCCCCC.[Cl-] [DDAC, didecyldimethylammonium chloride]", 947),
]
